Read-out: CFLAR gene, CFLAR (gene 8837)
PROTOCOL_NOTES: LTEA_HepaRG_CFLAR: Life Technologies and Expression Analysis (LTEA) Assay for CFLAR gene using HepaRG (AID 2283455)
TEST_SETTINGS: mRNA level, 48 h; actives raise or lower the signal
The source made the active and inactive calls. The calls were made as follows: active = hit-call score of the fitted dose curve at least 0.9, where 1 is the maximum; inactive = score below 0.9.
# output must be one of 1.0 = active, 0.0 = inactive

Recorded test outcome, item CCc1nc(N)nc(N)c1-c1ccc(Cl)cc1 0.0

Hey, what did the test say about Cn1cnc2c1c(=O)[nH]c(=O)n2C ? 0.0

Recorded call for CC(COCC(C)OC(=O)c1ccccc1)OC(=O)c1ccccc1 (configuration not stated) ? 0.0

Test call for this compound, please: CN(C)CCCN(C)CCCN(C)C 0.0

Just curious, what result did CCCCc1nc2cccnc2n1Cc1ccc(-c2ccccc2-c2nnn[nH]2)cc1 get here? 0.0

---
Hi team, can someone confirm the assay call for CN(C)CCCN1c2ccccc2Sc2ccc(Cl)cc21 ? 1.0

What call does the record list for CC1=C(C)S(=O)(=O)CCS1(=O)=O ? 0.0

Any idea what this test logged for CC(C)(O)c1ccc(CNC(=O)c2cccnc2Oc2ccc(F)cc2)cc1 ? 0.0

Call for entry CC(C)(C)c1ccccc1 : 0.0

Returns: the outcome recorded for Cc1cn([C@H]2C=C[C@@H](CO)O2)c(=O)[nH]c1=O in this assay. 0.0

I'd appreciate the recorded outcome for CN(C)C(=O)NC1(c2ccccc2)CCN(CC[C@@]2(c3ccc(F)c(F)c3)CN(C(=O)c3ccccc3)CCO2)CC1 from this test. 0.0

Recorded test call requested for CC(N)=O 0.0

* * *

Read-out: Human Leukocyte Antigen - DR isotype (HLADR), HLA-DRA (gene 3122)
PROTOCOL_NOTES: BSK_BE3C_HLADR: BioMAP Diversity Plus: BE3C Assay for Human Leukocyte Antigen - DR isotype (HLADR) Biomarker Activity (AID 2283032)
TEST_SETTINGS: primary human bronchial epithelial cells; actives raise or lower the signal
Activity calls are given as the source filed them. The calls were made as follows: active = hit-call score of the fitted dose curve at least 0.9, where 1 is the maximum; inactive = score below 0.9.
Reply using exactly one outcome from 1 (yes) = active, 0 (no) = inactive

Could you kindly confirm the outcome this assay logged for O=C1OC(c2ccc(O)cc2)(c2ccc(O)cc2)c2ccccc21 ? 1 (yes)

* * *

Read-out: CYP2E1 (gene 1571)
PROTOCOL_NOTES: LTEA_HepaRG_CYP2E1: Life Technologies and Expression Analysis (LTEA) Assay for CYP2E1 using HepaRG (AID 2283485)
TEST_SETTINGS: mRNA level, 48 h; actives raise or lower the signal
Activity calls are given as the source filed them. Rule for the calls: active = hit-call score of the fitted dose curve at least 0.9, where 1 is the maximum; inactive = score below 0.9.
Please answer using one outcome listed in True for active, False for inactive

Reference set (6 entries):
Which outcome was entered for the compound O=C1c2c(O)cccc2Cc2cccc(O)c21 in this test? False

Just curious, what result did CN(C)CCCN1c2ccccc2Sc2ccc(Cl)cc21 get here? True

Outcome? COC(=O)[C@H]1[C@H]2C[C@@H]3c4[nH]c5cc(OC)ccc5c4CCN3C[C@H]2C[C@@H](OC(=O)c2cc(OC)c(OC)c(OC)c2)[C@@H]1OC True

GET /call?item= CC(COCC(C)OC(=O)c1ccccc1)OC(=O)c1ccccc1 (stereo not given) returns the recorded outcome of this test. False

Per the records of this test, what outcome belongs to CSc1ccc(Oc2ccc(S(N)(=O)=O)cc2CN(C)C)cc1C ? True

Given COc1ccc(C(=O)Nc2nc3ccccc3c(NCc3ccccc3)c2C#N)cc1 , state the outcome it received in this test. True

Continuing:
# fetch the recorded call for CN(C)C(=O)NC1(c2ccccc2)CCN(CCC[C@]2(c3ccc(Cl)c(Cl)c3)CCCN(C(=O)c3ccccc3)C2)CC1 here True

What did this assay record as the result for O=NO ? False

Fill in: this test's call for O=C1NC(=O)C(c2ccccc2)(c2ccccc2)N1 is ___ True

Field: outcome | Entry: Oc1ccccc1O False

* * *

Read-out: Vascular cell adhesion molecule 1 (VCAM1), VCAM1 (gene 7412)
PROTOCOL_NOTES: BSK_hDFCGF_VCAM1: BioMAP Diversity Plus: hDFCGF Assay for Vascular cell adhesion molecule 1 (VCAM1) Biomarker Activity (AID 2283065)
TEST_SETTINGS: primary human foreskin fibroblasts; actives raise or lower the signal
Calls of active or inactive are those of the source. How the source made its calls: active means hit-call score of the fitted dose curve at least 0.9, where 1 is the maximum; inactive means score below 0.9.
Please state which outcome applies, choosing from t for active, f for inactive

Call for entry O=C(O)c1cccnc1 : f

Test call, this compound: CC(C)(O)c1ccc(CNC(=O)c2cccnc2Oc2ccc(F)cc2)cc1 f

Continuing:
What did this assay record as the result for O=NO ? f

Write down the call the test reported for this compound. Item: O=[Si]=O f

# outcome recorded in this test, key = C/C=C/c1ccc(OC)cc1 f

Call for entry CCN(CC)CCOc1ccc(C(=C(Cl)c2ccccc2)c2ccccc2)cc1 : t

Recorded test call requested for CCCC[C@H]1CN(CC2CCOCC2)C(=O)OC12CCN(C1(C)CCN(C(=O)c3c(C)ncnc3C)CC1)CC2 f

What outcome does the record of this test show for COc1ccc(C(=O)Nc2nc3ccccc3c(NCc3ccccc3)c2C#N)cc1 ? f

Each compound tested received a call. Report the one for CCc1nc(N)nc(N)c1-c1ccc(Cl)cc1 . f

Tell me the assay call for CC(C)OC(=O)C(C)(C)Oc1ccc(C(=O)c2ccc(Cl)cc2)cc1 please. f

Please state the recorded outcome for this compound: COc1ccc(OC(F)(F)F)cc1CN[C@H]1CCCN[C@H]1c1ccccc1 f

Per the assay record, what outcome was assigned to O=C1c2c(O)cccc2Cc2cccc(O)c21 ? t

Short answer needed: outcome of this test for O=C(O)CC(O)(CC(=O)O)C(=O)O ? f

Field: outcome | Entry: CCCCCCCCCCCCCCCCO f

* * *

Read-out: Cytochrome P450 7A1 (Homo sapiens) (UniProt P22680)
PROTOCOL_NOTES: LTEA_HepaRG_CYP7A1: Life Technologies and Expression Analysis (LTEA) Assay for Cytochrome P450 7A1 (CYP7A1) using HepaRG (AID 2283496)
TEST_SETTINGS: mRNA level, 48 h; actives raise or lower the signal
Calls of active or inactive are those of the source. Rule for the calls: active = hit-call score of the fitted dose curve at least 0.9, where 1 is the maximum; inactive = score below 0.9.
PROPERTY_NAME: AC50

Would you please look over these solved cases?
Short answer for CN(C)CCCN1c2ccccc2Sc2ccc(Cl)cc21 : AC50 was 81.3 µM (active)

Looking up Cc1ccc(-c2cc(C(F)(F)F)nn2-c2ccc(S(N)(=O)=O)cc2)cc1 , I see its AC50 listed as inactive

Lab note: measured AC50 of CC(C)c1cccc(C(C)C)c1NC(=O)NS(=O)(=O)c1cc(C(C)(C)O)co1 was inactive

Field AC50 (entry CC1(C)C(=O)NC(=O)N1CO ) reads inactive

Measured AC50 of Cc1occc(=O)c1O : inactive

Per the record, CCC(C)N(C)C(=O)c1cc2ccccc2c(-c2ccccc2Cl)n1 (stereo unspecified) has AC50 of inactive

In plain terms, Nc1nc(Cl)nc2c1ncn2[C@H]1C[C@H](O)[C@@H](CO)O1 has a documented AC50 of 1.2 µM (active)

AC50 measured on O=C1O[C@H]([C@H](O)CO)C(O)=C1O = inactive

New cases:
Record summary for CC(C)NCC(O)c1ccc(O)c(O)c1 (stereo unspecified) : reported AC50 = 0.212 µM (active)

Measured AC50, CC(=O)OCC(COC(C)=O)OC(C)=O : inactive

response.value for CCCCC(CC)COC(=O)CCCCCCCC(=O)OCC(CC)CCCC (stereo unspecified) (field: AC50) = inactive

Summary for this molecule, O=C(O)c1cccnc1 : AC50 is inactive

Briefly, AC50 measured for Cc1ccc(C(C)(C)C)c(O)c1 : inactive

* * *

Read-out: Thrombomodulin, THBD (gene 7056)
PROTOCOL_NOTES: BSK_3C_Thrombomodulin: BioMAP Diversity Plus: 3C Assay for Thrombomodulin Biomarker Activity (AID 2283029)
TEST_SETTINGS: primary human endothelial cells (HUVEC); actives raise or lower the signal
Activity calls are given as the source filed them. How the source made its calls: active means hit-call score of the fitted dose curve at least 0.9, where 1 is the maximum; inactive means score below 0.9.
Write down one outcome, taken from active, inactive

Look over these answered cases.
What was the test verdict on CCCCC(CC)CO (stereo not drawn) ? inactive

What is the recorded call for this compound in the test? C/C=C/c1ccc(OC)cc1 inactive

Dear all, I need the recorded test outcome for OCC(O)CO , thank you. inactive

Further cases:
Which outcome was assigned to CC(C)c1cccc(C(C)C)c1 in this test? inactive

GET /call?item= CC1(C)C(=O)NC(=O)N1CO returns the recorded outcome of this test. inactive

Outcome logged for Cc1cc(SC2=C(O)C[C@@](CCc3ccc(N)cc3)(C(C)C)OC2=O)c(C(C)(C)C)cc1CO in this assay: inactive

// outcome(item) with item = O=C1OC(c2ccc(O)cc2)(c2ccc(O)cc2)c2ccccc21 inactive

How was CCc1nc(N)nc(N)c1-c1ccc(Cl)cc1 classified in this test? inactive

# outcome recorded in this test, key = CCc1cc(C2=C(C(=O)O)N(c3ccccc3C(F)(F)F)S(=O)(=O)c3ccccc32)cc2c1OCO2 active

Call for entry O=C(Oc1ccccc1)c1cccc(C(=O)Oc2ccccc2)c1 : inactive
